# ASSAYED SYSTEM: T1, HKU1 full length Spike (human coronavirus HKU1, UniProt Q5MQD0 13-1276)
# T1 sequence: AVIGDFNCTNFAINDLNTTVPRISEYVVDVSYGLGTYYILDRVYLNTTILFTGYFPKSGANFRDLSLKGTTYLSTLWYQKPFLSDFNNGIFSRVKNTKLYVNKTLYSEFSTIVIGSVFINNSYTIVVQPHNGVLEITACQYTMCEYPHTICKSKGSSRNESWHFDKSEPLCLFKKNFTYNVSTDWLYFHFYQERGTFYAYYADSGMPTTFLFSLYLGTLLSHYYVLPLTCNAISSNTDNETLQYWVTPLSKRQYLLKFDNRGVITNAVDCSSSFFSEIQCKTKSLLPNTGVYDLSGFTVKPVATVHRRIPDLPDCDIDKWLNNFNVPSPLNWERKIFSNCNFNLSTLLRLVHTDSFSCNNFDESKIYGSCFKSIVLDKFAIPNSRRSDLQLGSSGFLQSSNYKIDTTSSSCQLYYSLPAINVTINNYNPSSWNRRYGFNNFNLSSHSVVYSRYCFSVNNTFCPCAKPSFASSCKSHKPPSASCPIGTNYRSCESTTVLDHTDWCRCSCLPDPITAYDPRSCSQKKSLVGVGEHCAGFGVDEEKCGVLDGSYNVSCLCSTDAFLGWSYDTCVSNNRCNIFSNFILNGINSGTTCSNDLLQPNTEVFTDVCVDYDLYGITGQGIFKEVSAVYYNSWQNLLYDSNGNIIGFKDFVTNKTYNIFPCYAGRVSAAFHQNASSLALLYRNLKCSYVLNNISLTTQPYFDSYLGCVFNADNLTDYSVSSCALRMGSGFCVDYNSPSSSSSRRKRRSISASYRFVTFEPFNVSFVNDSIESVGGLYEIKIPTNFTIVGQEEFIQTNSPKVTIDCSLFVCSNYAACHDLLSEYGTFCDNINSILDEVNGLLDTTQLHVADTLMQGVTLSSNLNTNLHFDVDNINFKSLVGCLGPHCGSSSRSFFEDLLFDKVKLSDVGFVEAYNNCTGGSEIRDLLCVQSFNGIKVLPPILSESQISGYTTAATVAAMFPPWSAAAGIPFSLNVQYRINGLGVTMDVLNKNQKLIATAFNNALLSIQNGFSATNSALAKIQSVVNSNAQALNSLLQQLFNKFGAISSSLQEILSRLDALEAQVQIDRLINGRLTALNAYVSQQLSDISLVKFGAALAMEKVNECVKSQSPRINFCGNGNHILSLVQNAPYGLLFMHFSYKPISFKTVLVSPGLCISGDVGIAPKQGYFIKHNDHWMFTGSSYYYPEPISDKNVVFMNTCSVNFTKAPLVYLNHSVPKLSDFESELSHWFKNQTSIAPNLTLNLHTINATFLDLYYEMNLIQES
Quick reference: median fluorescence intensity, fold over isotype control of the listed items.
Please state the figure in fold over isotype; there is no need to write the unit.

mAb 1149 (antibody, V domains shown) VH: QVQLVQSGAEVKKPGASVKVSCKASGYTFASYDINWVRQATGQGPEWMGWMIPNIGNTGYAQKFQGRVTMTRNTSISTAYMELSSLTSEDTAVYYCARVSRLFNDFGLRHEAPVDFWGQGTRVTVSS VL: QSVLTQPPSVSGAPGQRVTISCTGSSSNIGAGYDVHWYQQLPGTAPKLLIYGYSSRPSGVPDRFSGSKSGTSASLAITGLQAEDEADYYCQSYDSSLSVLFGGGTKLTVLG :: 0.83
mAb 896 (antibody, V domains shown) VH: EVQLVESGGGVVQPGGSLRLSCAASGFTFDDYAMHWVRQVPGKGLEWVSLISGDGGSTYYADSVKGRFTISRDNSKNSLYVQMNSLRTEDTALYYCVKDRGGSGWDLNHYYYGMDVWGQGTTVTVSS VL: DIQLTQSPSFLSASVGDRVTVTCRASQGISSYLAWYQQKPGKAPKLLIYAAYTLQSGVPSRFSGSGSETEFTLTISSLQPEDFATYYCQQVKSYPLTFGGGTKVEIKR :: 1.07

Kindly consider the entry below.
Request: Hello, please tell me recorded median fluorescence intensity, fold over isotype control for this one: mAb 1585 (antibody, V domains shown) VH: QVQLVESGGGVVQPGRSLRLSCAASGFTFSRFTLHWVRQAPGKGLEWVAVISYDGSNKYYADSVKGRFTISRDNSKSTLYLQMNSLRAEDTGVYYCARDPSTVTGYFDYWGQGTLVTVSS VL: SYVLTQPPSVSVAPGKTAKISCGGDSIGSKSVHWYQQKPGQAPVLVIYYDNDRPSGIPERFSGSNSGNTATLTISRVEAGDEADYYCQVWDIGVVFGGGTKLTVLG
Result: 0.88

Cited source: patent US20220356229A1
